The reported numbers originate from the supplement of paper PMC10567573.

B1: GLTSCR2 (parent)
chain: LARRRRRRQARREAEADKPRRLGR

# Variants of: B1
# assay.name: protein stability index of a GFP-peptide fusion (GPS, HEK-293T) (PSI 1-6); higher = more stable;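 also: lentivirally expressed fusions sorted by FACS into six bins by GFP to DsRed ratio, PSI derived from sequencing read proportions per bin multiplied by bin number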
# assay.setup: c terminus: a fixed tail appended
recorded.endpoint: protein stability index
Form rule: numeric answer, no unit written next to it.

// below: answered variants
[
  {
    "sequence.content": "LARRRRRRQARREAEADKPRRLGE [R24E]",
    "protein stability index": 4.12
  },
  {
    "sequence.content": "LARRRRRRQASREAEADKPRRLGR [R11S]",
    "protein stability index": 4.74
  },
  {
    "sequence.content": "LARRRRRRQERREAEADKPRRLGR [A10E]",
    "protein stability index": 4.55
  },
  {
    "sequence.content": "LARRRRRRSARREAEADKPRRLGR [Q9S]",
    "protein stability index": 4.57
  },
  {
    "sequence.content": "LARRRRRRQARREAEADKPRRAGR [L22A]",
    "protein stability index": 4.74
  }
]

Q. Name the recorded protein stability index of the item LARRRRRRQARREAEADKPRSLGR [R21S] in your answer.
A. 5.15

Q. Give the reported value of protein stability index for this record: LARTRRRRQARREAEADKPRRLGR [R4T]
A. 4.67
